# assay.target: RVV-X activated P. textilis isoform FX (Pseudonaja textilis, UniProt Q1L658)
# Sequence (Q1L658 210-463 limits assumed): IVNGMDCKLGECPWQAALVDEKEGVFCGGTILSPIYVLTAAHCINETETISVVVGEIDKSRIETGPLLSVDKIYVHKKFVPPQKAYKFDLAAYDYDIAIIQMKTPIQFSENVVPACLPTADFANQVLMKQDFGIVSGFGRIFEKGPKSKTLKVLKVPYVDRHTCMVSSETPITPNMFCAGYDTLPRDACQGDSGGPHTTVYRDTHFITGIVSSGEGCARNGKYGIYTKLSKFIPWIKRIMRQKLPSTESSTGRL
# Sequence (Q1L658 41-180 partner limits assumed): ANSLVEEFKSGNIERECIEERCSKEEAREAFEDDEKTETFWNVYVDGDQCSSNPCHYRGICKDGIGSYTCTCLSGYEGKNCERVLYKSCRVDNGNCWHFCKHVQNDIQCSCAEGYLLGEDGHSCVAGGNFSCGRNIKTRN
# run.description: biochemical
readout.label: IC50

smiles.structure | result
COc1ccc(-n2nc(C(N)=O)c3c2C(=O)N(c2ccc(N4CCCCC4=O)cc2)CC3)cc1 | ≥ 100 µM

====

# assay.target: RVV-X activated P. textilis venom FX (Pseudonaja textilis)
# Sequence (Q56VR3 210-467 limits assumed): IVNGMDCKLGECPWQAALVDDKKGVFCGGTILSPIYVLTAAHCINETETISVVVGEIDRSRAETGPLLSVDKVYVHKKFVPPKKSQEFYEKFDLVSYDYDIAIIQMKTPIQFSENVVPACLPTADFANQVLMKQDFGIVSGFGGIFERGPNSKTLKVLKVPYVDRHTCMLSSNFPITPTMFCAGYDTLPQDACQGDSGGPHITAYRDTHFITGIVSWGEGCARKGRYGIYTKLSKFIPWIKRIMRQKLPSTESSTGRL
# Sequence (Q56VR3 41-181 partner limits assumed): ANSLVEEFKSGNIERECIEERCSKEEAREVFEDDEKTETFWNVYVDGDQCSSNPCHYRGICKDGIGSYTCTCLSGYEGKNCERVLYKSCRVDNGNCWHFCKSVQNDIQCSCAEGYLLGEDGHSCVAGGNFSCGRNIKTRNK
# run.description: biochemical
readout.label: IC50

molecule | assay.target | result
COc1ccc(-n2nc(C(N)=O)c3c2C(=O)N(c2ccc(N4CCCCC4=O)cc2)CC3)cc1 [Apixaban] | RVV-X activated P. textilis venom FX (Pseudonaja textilis) | ≥ 100 µM

====

# assay.target: FXa-A (Homo sapiens, UniProt P00742)
# Sequence (P00742 with tags, fused parts or gaps): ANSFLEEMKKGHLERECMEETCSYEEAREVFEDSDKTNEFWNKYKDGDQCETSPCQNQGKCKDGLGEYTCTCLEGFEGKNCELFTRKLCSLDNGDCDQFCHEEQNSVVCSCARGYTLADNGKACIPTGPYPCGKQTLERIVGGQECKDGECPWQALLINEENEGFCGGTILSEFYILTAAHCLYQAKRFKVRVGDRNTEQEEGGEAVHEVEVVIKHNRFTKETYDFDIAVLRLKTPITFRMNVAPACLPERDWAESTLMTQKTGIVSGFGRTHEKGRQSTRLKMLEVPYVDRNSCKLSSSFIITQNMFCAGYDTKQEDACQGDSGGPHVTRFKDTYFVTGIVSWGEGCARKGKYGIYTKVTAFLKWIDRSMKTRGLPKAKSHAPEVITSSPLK
# Sequence (P12259 with tags, fused parts or gaps partner): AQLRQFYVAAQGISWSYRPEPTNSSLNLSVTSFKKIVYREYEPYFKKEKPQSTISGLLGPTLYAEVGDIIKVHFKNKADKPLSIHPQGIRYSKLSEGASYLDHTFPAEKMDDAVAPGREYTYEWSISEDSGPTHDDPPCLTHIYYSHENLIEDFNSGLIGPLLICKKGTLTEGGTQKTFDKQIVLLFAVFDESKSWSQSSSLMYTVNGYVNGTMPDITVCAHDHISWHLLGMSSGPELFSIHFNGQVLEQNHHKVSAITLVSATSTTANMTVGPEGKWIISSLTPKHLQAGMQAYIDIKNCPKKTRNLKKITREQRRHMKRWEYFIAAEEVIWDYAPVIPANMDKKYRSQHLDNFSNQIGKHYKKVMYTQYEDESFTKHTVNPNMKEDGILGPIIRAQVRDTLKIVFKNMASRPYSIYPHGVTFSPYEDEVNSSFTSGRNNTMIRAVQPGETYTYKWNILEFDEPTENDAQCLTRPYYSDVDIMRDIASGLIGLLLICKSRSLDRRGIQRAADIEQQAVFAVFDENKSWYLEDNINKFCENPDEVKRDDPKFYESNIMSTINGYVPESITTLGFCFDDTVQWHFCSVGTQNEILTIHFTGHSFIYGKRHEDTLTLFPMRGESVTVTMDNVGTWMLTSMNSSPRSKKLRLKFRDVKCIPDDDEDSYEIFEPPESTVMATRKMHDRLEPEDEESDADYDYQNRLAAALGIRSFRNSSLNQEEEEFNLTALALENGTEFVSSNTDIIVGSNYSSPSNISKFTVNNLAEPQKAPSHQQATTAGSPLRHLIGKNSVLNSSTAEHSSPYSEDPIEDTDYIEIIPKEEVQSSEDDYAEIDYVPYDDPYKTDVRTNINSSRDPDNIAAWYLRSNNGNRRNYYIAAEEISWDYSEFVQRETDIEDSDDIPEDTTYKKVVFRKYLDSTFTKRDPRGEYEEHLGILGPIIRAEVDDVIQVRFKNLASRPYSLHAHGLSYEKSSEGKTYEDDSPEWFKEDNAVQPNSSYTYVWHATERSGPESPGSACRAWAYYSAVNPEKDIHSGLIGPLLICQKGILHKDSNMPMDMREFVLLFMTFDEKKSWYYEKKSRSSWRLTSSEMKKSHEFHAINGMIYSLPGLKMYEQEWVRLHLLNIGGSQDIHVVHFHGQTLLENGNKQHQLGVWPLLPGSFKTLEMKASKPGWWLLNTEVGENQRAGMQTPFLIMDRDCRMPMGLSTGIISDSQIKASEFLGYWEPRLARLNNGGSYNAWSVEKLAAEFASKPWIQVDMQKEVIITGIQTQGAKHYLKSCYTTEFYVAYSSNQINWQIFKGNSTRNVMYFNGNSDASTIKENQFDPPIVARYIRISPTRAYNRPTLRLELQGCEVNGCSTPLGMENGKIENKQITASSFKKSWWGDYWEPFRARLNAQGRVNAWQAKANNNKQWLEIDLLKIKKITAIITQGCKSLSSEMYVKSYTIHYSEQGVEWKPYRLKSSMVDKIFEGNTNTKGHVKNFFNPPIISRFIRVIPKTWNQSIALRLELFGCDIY
# Assay type: biochemical, human-snake chimera
# experimental.context: rTAP 0.5–100 nM, 1 nM FXa, 30 min

substance | Ki, nM
rTAP (YNRLCIKPRDWIDECDSNEGGERAYFRNGKGGCDSFWICPEDHTGADYYSSYRDCFNACI) | 26.3
